Target: T1, GST–PPARα fusion protein (purified ligand binding domain of PPARα)
T1 sequence (Q07869 whole entry, species assumed, looked up): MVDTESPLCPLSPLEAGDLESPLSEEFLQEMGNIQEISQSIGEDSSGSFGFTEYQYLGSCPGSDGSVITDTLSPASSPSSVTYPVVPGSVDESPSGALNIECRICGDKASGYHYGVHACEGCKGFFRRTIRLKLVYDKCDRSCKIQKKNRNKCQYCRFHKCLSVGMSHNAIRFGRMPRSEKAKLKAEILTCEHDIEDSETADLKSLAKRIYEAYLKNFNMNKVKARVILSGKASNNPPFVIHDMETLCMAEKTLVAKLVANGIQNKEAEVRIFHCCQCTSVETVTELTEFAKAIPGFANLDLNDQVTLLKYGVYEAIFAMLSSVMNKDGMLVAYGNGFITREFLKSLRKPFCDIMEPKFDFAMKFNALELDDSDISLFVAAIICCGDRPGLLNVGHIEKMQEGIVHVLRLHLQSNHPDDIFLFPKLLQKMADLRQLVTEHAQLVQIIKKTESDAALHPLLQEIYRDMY
Assay: FRET or BRET; homogeneous TR-FRET as a1, 12-concentration dose–response of fenofibric acid; the EC50 is of the compound; delta ratio in % of the reference compound RO4899100 at 10 μM
Where no end group is shown, it is not given here. The star is where a group is joined. Biotin = O=C1N[C@H]2[C@H](CS[C@H]2CCCCC(=O)*)N1; Ahx = NCCCCCC(=O)O
The threshold is 4 µM. Values of EC50 of fenofibric acid for recruitment beneath it are tagged fulfilled; values meeting or exceeding it are tagged not fulfilled.

Consider the worked cases shown below.
{Biotin-Ahx}-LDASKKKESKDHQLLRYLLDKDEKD (source: synthetic peptide (Jerini or Biosynthan, Berlin)) [SRC1_M3 cofactor peptide (steroid receptor co-activator 1, motif 3)] : fulfilled
{Biotin-Ahx}-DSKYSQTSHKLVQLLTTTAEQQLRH (source: synthetic peptide (Jerini or Biosynthan, Berlin)) [SRC1_M1 cofactor peptide (steroid receptor co-activator 1, motif 1)] : not fulfilled
{Biotin-Ahx}-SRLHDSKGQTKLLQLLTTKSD (transcriptional intermediary factor 2 (TIF2), motif 1, residues 630-650; source: synthetic peptide (Jerini or Biosynthan, Berlin)) [TIF2_M1 cofactor peptide (transcriptional intermediary factor 2, motif 1)] : fulfilled

Prompt: Please determine if {Biotin-Ahx}-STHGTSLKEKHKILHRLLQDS [TIF2_M2 cofactor peptide (transcriptional intermediary factor 2, motif 2)] is below 4 µM in terms of EC50 of fenofibric acid for recruitment.
Response: not fulfilled

Prompt: Please determine if {Biotin-Ahx}-SPKKKENALLRYLLDKDDTK [TIF2_M3 cofactor peptide (transcriptional intermediary factor 2, motif 3)] is below 4 µM in terms of EC50 of fenofibric acid for recruitment.
Response: fulfilled
